test: Three-treatment crossover pharmacokinetics of IN nalmefene, three dosing regimens (Example 13); conditions: human, plasma, other: intranasal (IN spray), 6 mg, […], Mean; Time 0.250; T3: 6 mg nalmefene HCl IN, two 0.1 mL sprays in one nostril
metric: concentration at […] (ng/mL)
Give the quantity in ng/mL, number only.

Query: Given the entry C=C1CC[C@@]2(O)[C@H]3Cc4ccc(O)c5c4[C@@]2(CCN3CC2CC2)[C@H]1O5 [Nalmefene] , report its measured concentration at […].
Reply: 16.9

* * *

test: Three-treatment crossover pharmacokinetics of IN nalmefene, three dosing regimens (Example 13); details: human, plasma, other: intranasal, 3 mg, […], Min, T1 (3 mg IN, one spray in one nostril); time 0.166
metric: concentration at […] (ng/mL)
Give the quantity in ng/mL, number only.

Query: Given the entry C=C1CC[C@@]2(O)[C@H]3Cc4ccc(O)c5c4[C@@]2(CCN3CC2CC2)[C@H]1O5 [Nalmefene] , report its measured concentration at […].
Reply: 1.09

* * *

experiment: Two-period crossover pharmacokinetics of nalmefene 3 mg IN vs 1.0 mg IM (Example 12); conditions: human, plasma, im, 1 mg, AUClast, Treatment B: IM 1.0 mg nalmefene hydrochloride; plasma; Median, n=68
metric: AUC(0-t) (ng·h/mL)
Give the quantity in ng·h/mL, number only.

Query: Given the entry C=C1CC[C@@]2(O)[C@H]3Cc4ccc(O)c5c4[C@@]2(CCN3CC2CC2)[C@H]1O5 , report its measured AUC(0-t).
Reply: 15.9

* * *

experiment: Three-treatment crossover pharmacokinetics of IN nalmefene, three dosing regimens (Example 13); settings: human, plasma, other: intranasal (IN spray), 6 mg, […], Mean; Time 3.00; T3: 6 mg nalmefene HCl IN, two 0.1 mL sprays in one nostril
metric: concentration at 3 h (ng/mL)
Give the quantity in ng/mL, number only.

Query: Given the entry C=C1CC[C@@]2(O)[C@H]3Cc4ccc(O)c5c4[C@@]2(CCN3CC2CC2)[C@H]1O5 , report its measured concentration at 3 h.
Reply: 6.9

* * *

assay: Three-treatment crossover pharmacokinetics of IN nalmefene, three dosing regimens (Example 13); conditions: human, plasma, other: intranasal (IN spray), 3 mg, […], Median, T1 (3 mg IN, one spray in one nostril); time 12.0
metric: concentration at 12 h (ng/mL)
Give the quantity in ng/mL, number only.

Query: Given the entry C=C1CC[C@@]2(O)[C@H]3Cc4ccc(O)c5c4[C@@]2(CCN3CC2CC2)[C@H]1O5 , report its measured concentration at 12 h.
Reply: 0.985

* * *

experiment: Three-treatment crossover pharmacokinetics of IN nalmefene, three dosing regimens (Example 13); conditions: human, plasma, other: intranasal (IN) spray, 3 mg, […], Min, T1 (3 mg IN, one spray in one nostril); time 4.00
metric: concentration at 4 h (ng/mL)
Give the quantity in ng/mL, number only.

Query: Given the entry C=C1CC[C@@]2(O)[C@H]3Cc4ccc(O)c5c4[C@@]2(CCN3CC2CC2)[C@H]1O5 [Nalmefene] , report its measured concentration at 4 h.
Reply: 1.97

* * *

assay: Two-period crossover pharmacokinetics of nalmefene 3 mg IN vs 1.0 mg IM (Example 12); settings: human, plasma, im, 1 mg, AUC0-15 min, Treatment B: 1.0 mg nalmefene IM (gluteal muscle); plasma; Mean, n 68
metric: AUC(0-t)
Include the unit right after the number.

Query: Given the entry C=C1CC[C@@]2(O)[C@H]3Cc4ccc(O)c5c4[C@@]2(CCN3CC2CC2)[C@H]1O5 [Nalmefene] , report its measured AUC(0-t).
Reply: 0.2 ng·h/mL

* * *

assay: Two-period crossover pharmacokinetics of nalmefene 3 mg IN vs 1.0 mg IM (Example 12); conditions: human, plasma, im, 1 mg, AUC0-30 min, GeoMean, Treatment B 1.0 mg IM (Ref)
metric: AUC(0-t) (ng·h/mL)
Give the quantity in ng·h/mL, number only.

Query: Given the entry C=C1CC[C@@]2(O)[C@H]3Cc4ccc(O)c5c4[C@@]2(CCN3CC2CC2)[C@H]1O5 , report its measured AUC(0-t).
Reply: 0.405

* * *

assay: Two-period crossover pharmacokinetics of nalmefene 3 mg IN vs 1.0 mg IM (Example 12); settings: human, plasma, other: intranasal, 3 mg, AUC0-10 min, Treatment A: 3.0 mg nalmefene hydrochloride IN; plasma; Median, n 66
metric: AUC(0-t)
Include the unit right after the number.

Query: Given the entry C=C1CC[C@@]2(O)[C@H]3Cc4ccc(O)c5c4[C@@]2(CCN3CC2CC2)[C@H]1O5 , report its measured AUC(0-t).
Reply: 0.537 ng·h/mL

* * *

experiment: Three-treatment crossover pharmacokinetics of IN nalmefene, three dosing regimens (Example 13); settings: human, plasma, other: intranasal, 3 mg, […], Mean, T1 (3 mg IN, one spray in one nostril); time 0.00
metric: concentration at 0 h
Include the unit right after the number.

Query: Given the entry C=C1CC[C@@]2(O)[C@H]3Cc4ccc(O)c5c4[C@@]2(CCN3CC2CC2)[C@H]1O5 , report its measured concentration at 0 h.
Reply: 0 ng/mL

* * *

experiment: Three-treatment crossover pharmacokinetics of IN nalmefene, three dosing regimens (Example 13); details: human, plasma, other: intranasal, 3 mg, […], Median, T1 (3 mg IN, one spray in one nostril); time 1.00
metric: concentration at 1 h (ng/mL)
Give the quantity in ng/mL, number only.

Query: Given the entry C=C1CC[C@@]2(O)[C@H]3Cc4ccc(O)c5c4[C@@]2(CCN3CC2CC2)[C@H]1O5 , report its measured concentration at 1 h.
Reply: 5.11

* * *

assay: Three-treatment crossover pharmacokinetics of IN nalmefene, three dosing regimens (Example 13); details: human, plasma, other: intranasal, 3 mg, […], Mean, T1 (3 mg IN, one spray in one nostril); time 1.00
metric: concentration at 1 h (ng/mL)
Give the quantity in ng/mL, number only.

Query: Given the entry C=C1CC[C@@]2(O)[C@H]3Cc4ccc(O)c5c4[C@@]2(CCN3CC2CC2)[C@H]1O5 , report its measured concentration at 1 h.
Reply: 5.47

* * *

assay: Three-treatment crossover pharmacokinetics of IN nalmefene, three dosing regimens (Example 13); conditions: human, plasma, other: intranasal (IN spray), 3 mg
metric: half-life

Query: Given the entry C=C1CC[C@@]2(O)[C@H]3Cc4ccc(O)c5c4[C@@]2(CCN3CC2CC2)[C@H]1O5 , report its measured half-life.
Reply: 11.4 h

* * *

assay: Three-treatment crossover pharmacokinetics of IN nalmefene, three dosing regimens (Example 13); conditions: human, plasma, other: intranasal (IN spray), 6 mg, […], Median; Time 8.00; T3: 6 mg nalmefene HCl IN, two 0.1 mL sprays in one nostril
metric: concentration at 8 h (ng/mL)
Give the quantity in ng/mL, number only.

Query: Given the entry C=C1CC[C@@]2(O)[C@H]3Cc4ccc(O)c5c4[C@@]2(CCN3CC2CC2)[C@H]1O5 , report its measured concentration at 8 h.
Reply: 2.46

* * *

experiment: Two-period crossover pharmacokinetics of nalmefene 3 mg IN vs 1.0 mg IM (Example 12); conditions: human, plasma, other: intranasal, 3 mg, Mean plasma concentration, Treatment A 3.0 mg IN; 1.00 h
metric: concentration at 1 h (ng/mL)
Give the quantity in ng/mL, number only.

Query: Given the entry C=C1CC[C@@]2(O)[C@H]3Cc4ccc(O)c5c4[C@@]2(CCN3CC2CC2)[C@H]1O5 [Nalmefene] , report its measured concentration at 1 h.
Reply: 4.64

* * *

experiment: Phase 1 pharmacokinetic evaluation of nalmefene IN with and without Intravail vs IM injection; conditions: human, in vivo, 3 mg
metric: concentration at 0.04 h (ng/mL)
Give the quantity in ng/mL, number only.

Query: Given the entry C=C1CC[C@@]2(O)[C@H]3Cc4ccc(O)c5c4[C@@]2(CCN3CC2CC2)[C@H]1O5 , report its measured concentration at 0.04 h.
Reply: 0

* * *

experiment: Three-treatment crossover pharmacokinetics of IN nalmefene, three dosing regimens (Example 13); conditions: human, plasma, other: intranasal (IN spray), 3 mg, […], Min, T1 (3 mg IN, one spray in one nostril); time 12.0
metric: concentration at 12 h (ng/mL)
Give the quantity in ng/mL, number only.

Query: Given the entry C=C1CC[C@@]2(O)[C@H]3Cc4ccc(O)c5c4[C@@]2(CCN3CC2CC2)[C@H]1O5 , report its measured concentration at 12 h.
Reply: 0.727

* * *

experiment: Phase 1 pharmacokinetic evaluation of nalmefene IN with and without Intravail vs IM injection; conditions: human, in vivo, 1.5 mg
metric: concentration at 72 h (ng/mL)
Give the quantity in ng/mL, number only.

Query: Given the entry C=C1CC[C@@]2(O)[C@H]3Cc4ccc(O)c5c4[C@@]2(CCN3CC2CC2)[C@H]1O5 , report its measured concentration at 72 h.
Reply: 0

* * *

assay: Three-treatment crossover pharmacokinetics of IN nalmefene, three dosing regimens (Example 13); settings: human, plasma, other: intranasal (IN spray), 6 mg, […], Mean; Time 0.333; T3: 6 mg nalmefene HCl IN, two 0.1 mL sprays in one nostril
metric: concentration at […] (ng/mL)
Give the quantity in ng/mL, number only.

Query: Given the entry C=C1CC[C@@]2(O)[C@H]3Cc4ccc(O)c5c4[C@@]2(CCN3CC2CC2)[C@H]1O5 , report its measured concentration at […].
Reply: 14.6
